# testTarget: Cytochrome P450 2D6 (Homo sapiens)
# Sequence (P10635 whole entry): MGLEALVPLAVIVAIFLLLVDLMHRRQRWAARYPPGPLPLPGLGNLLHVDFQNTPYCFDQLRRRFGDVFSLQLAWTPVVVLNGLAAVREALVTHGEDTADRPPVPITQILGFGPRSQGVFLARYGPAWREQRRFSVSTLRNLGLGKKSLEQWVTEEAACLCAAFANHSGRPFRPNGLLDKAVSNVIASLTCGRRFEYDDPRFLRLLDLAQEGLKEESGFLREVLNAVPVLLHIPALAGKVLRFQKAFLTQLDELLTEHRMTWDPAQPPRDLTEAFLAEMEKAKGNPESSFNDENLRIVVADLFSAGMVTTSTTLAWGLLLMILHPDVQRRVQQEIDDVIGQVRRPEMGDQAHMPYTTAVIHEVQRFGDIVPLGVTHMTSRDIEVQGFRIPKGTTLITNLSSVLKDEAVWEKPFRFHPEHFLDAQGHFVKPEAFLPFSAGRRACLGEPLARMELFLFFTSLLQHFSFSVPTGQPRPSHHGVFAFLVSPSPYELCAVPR
testReadout: IC50

The measured IC50 that `CN(C)C(=O)c1ccc(OCCCCC[C@H]2CC[C@]3(CC2)COC(C)(C)C3)cc1` showed for Cytochrome P450 2D6 (Homo sapiens) is > 10 µM

----------
# testTarget: UniProt:Q8TDV5
# testMethodNotes: Agonist activity at human GPR119 expressed in HEK293 cells assessed as increase in intracellular cAMP level after 30 mins
// reported EC50 for each item listed
The answer is to be given in nM; state only the numeric part.

> print(dat)
                            substancesmiles  testreadout  unitspec  observed
1  CC(C)OC(=O)N1CCC(CCCCCOc2ccc(C(=O)N(C)C)cc2)CC1         EC50        nM        10

Reported EC50 of `CN(C)C(=O)c1ccc(OCCCCC[C@H]2CC[C@@]3(CC2)CC(C)(C)CCO3)cc1` : 7

----------
# testMethodNotes: Solubility in fed state simulated intestinal fluid
# Format: physicochemical
// reported solubility for each item listed
The answer is to be given in µM; state only the numeric part.

> print(dat)
                            substancesmiles  testreadout  unitspec  observed
1  CN(C)C(=O)c1ccc(OCCCCC[C@H]2CC[C@]3(CC2)COC(C)(C)C3)cc1   solubility        µM       442

Reported solubility of `CN(C)C(=O)c1ccc(OCCCCCC2CCN(C(=O)OC(C)(C)C)CC2)cc1` : 74.2

Reported solubility of `CC(C)(C)OC(=O)N1CCC(CCCCCOc2ccc(S(C)(=O)=O)cc2)CC1` : 15.9

Reported solubility of `CC(C)OC(=O)N1CCC(CCCCCOc2ccc(C(=O)N(C)C)cc2)CC1` : 222

----------
Form: system (Cytochrome P450 2C9 (Homo sapiens, UniProt P11712)), quantity (IC50), values below.

> print(dat)
                            substancesmiles  testreadout  observed
1  CC(C)OC(=O)N1CCC(CCCCCOc2ccc(C(=O)N(C)C)cc2)CC1         IC50   < 10 µM

Next, consider the following compound.
Reported IC50 of `CN(C)C(=O)c1ccc(OCCCCC[C@H]2CC[C@]3(CC2)COC(C)(C)C3)cc1` : > 10 µM

----------
# testTarget: Glucose-dependent insulinotropic receptor (Homo sapiens) (UniProt Q8TDV5)
# Sequence (Q8TDV5 whole entry): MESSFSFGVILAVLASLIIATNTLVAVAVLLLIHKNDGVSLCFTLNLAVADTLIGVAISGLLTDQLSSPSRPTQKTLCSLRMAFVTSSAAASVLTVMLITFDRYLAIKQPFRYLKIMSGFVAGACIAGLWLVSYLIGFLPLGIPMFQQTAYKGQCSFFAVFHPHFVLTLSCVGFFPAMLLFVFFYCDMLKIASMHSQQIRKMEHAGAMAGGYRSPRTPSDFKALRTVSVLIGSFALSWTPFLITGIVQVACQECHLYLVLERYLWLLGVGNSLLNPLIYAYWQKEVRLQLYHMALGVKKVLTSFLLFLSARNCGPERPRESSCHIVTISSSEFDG
# testMethodNotes: Agonist activity at human GPR119 expressed in HEK293 cells assessed as increase in intracellular cAMP level after 30 mins relative to oleoylethanolamide
# Type: functional, cell-based
// reported Activity for each item listed
The answer is to be given in %; state only the numeric part.

Worked set:
> print(dat)
                            substancesmiles  testreadout  observed
1  CN(C)C(=O)c1ccc(OCCCCC[C@H]2CC[C@@]3(CCCCO3)CC2)cc1     Activity        96
2  CN(C)C(=O)c1ccc(OCCCCC[C@H]2CC[C@]3(CCCO3)CC2)cc1     Activity        84
3  CN(C)C(=O)c1ccc(OCCCCC[C@H]2CC[C@@]3(CC2)CC(C)(C)CCO3)cc1     Activity       110
4  CN(C)C(=O)c1ccc(OCCCCCC2CCN(C(=O)OC(C)(C)C)CC2)cc1     Activity        97
5  CC(C)(C)OC(=O)N1CCC(CCCCCCOc2ccc(S(C)(=O)=O)cc2)CC1     Activity        72

Reported Activity of `CC(C)(C)OC(=O)N1CCC(CCCCCOc2ccc(S(C)(=O)=O)cc2)CC1` : 93

Reported Activity of `CN(C)C(=O)c1ccc(OCCCCC[C@H]2CC[C@@]3(CCCO3)CC2)cc1` : 89

Reported Activity of `CN(C)C(=O)c1ccc(OCCCCC[C@H]2CC[C@]3(CCC(C)(C)O3)CC2)cc1` : 64

Reported Activity of `CN(C)C(=O)c1ccc(OCCCCC[C@H]2CC[C@]3(CCCCO3)CC2)cc1` : 96

Reported Activity of `CC(C)(C)OC(=O)N1CCC(CCCOc2ccc(S(C)(=O)=O)cc2)CC1` : 106

Reported Activity of `CN(C)C(=O)c1ccc(OCCCCCC2CCC3(CC2)OCCCO3)cc1` : 96

Reported Activity of `CN(C)C(=O)c1ccc(OCCCCCC2CCC3(CC2)OCCO3)cc1` : 92

Reported Activity of `CC(C)OC(=O)N1CCC(CCCCCOc2ccc(C(=O)N(C)C)cc2)CC1` : 102

Reported Activity of `CN(C)C(=O)c1ccc(OCCCCC[C@H]2CC[C@]3(CC2)COC(C)(C)C3)cc1` : 104

Reported Activity of `CN(C)C(=O)c1ccc(OCCCCC[C@H]2CC[C@@]3(CC2)CC(C)(C)CO3)cc1` : 99

Reported Activity of `CC(C)(C)OC(=O)N1CCC(CCCCOc2ccc(S(C)(=O)=O)cc2)CC1` : 100

Reported Activity of `CN(C)C(=O)c1ccc(OCCCCCC2CCC3(CCCCC3)CC2)cc1` : 91
